system: Noggin (protein binding on small-molecule microarray); assay: Noggin binders on small-molecule microarray, primary screen, biochemical, 635/667 nm fluorescence (AID 1095); conditions: 635 nm fluorescence, higher = more signal;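 further: score merges 667 nm feature fluorescence with signal to noise over triplicate slides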
Please use 1.0 whenever composite z-score is not below 0.5, and 0.0 whenever it is.

{"columns": ["compound", "class"],
 "data": [
  ["COc1ccc(COC(=O)NN=C2C[C@@H](O)[C@@H](O)[C@@H]3[C@@H]4C(=O)N(C(C)(C)C)C(=O)[C@@H]4CC[C@H]23)cc1", 0.0],
  ["CC(C)CCN1CCc2nc(-c3ccccc3)c3c(c2C1)CO[C@@H](C)C3", 0.0],
  ["C[C@@H](ON=C1[C@H]2CCn3c(=O)n(-c4ccccc4)c(=O)n3[C@H]2[C@H](O)[C@@H]2O[C@H]12)c1cn([C@H](CO)Cc2ccccc2)nn1", 1.0],
  ["CC(C)C(=O)N[C@@H]1CCCN1C(=O)C=Cc1ccccc1", 1.0],
  ["CC(C)=CCCC(C)=CCON=C1C[C@@H](O)[C@@H](O)[C@@H]2[C@@H]3C(=O)N([C@@H](C)c4ccccc4)C(=O)[C@@H]3CC[C@H]12", 0.0],
  ["CC(C)CON=C1C[C@@H](O)[C@@H](O)[C@@H]2[C@@H]3C(=O)N(c4cccc(Oc5ccccc5)c4)C(=O)[C@@H]3CC[C@H]12", 0.0],
  ["COC(=O)[C@H](C)NC(=O)CCC1CC(OC(=O)NCCc2ccc(F)cc2)CC2(CCCC(COC(=O)NCCCN3CCCC3=O)O2)O1 (stereo partly drawn)", 1.0],
  ["CC(C)=NO[C@@H](C)c1cc(-c2c(C)cc(C)cc2C)no1", 0.0]
]}

###

target: NADPH oxidase 2 (Homo sapiens); experiment: NOX2-dependent H2O2 signal modulators, primary screen, NOX inhibitor project, cell-based, HEK293-NOX2, PMA-stimulated, Amplex Red fluorescence (AID 1159); conditions: 45 min, higher = more signal, called active from +8 up or from −8 down; further: test concentration not given here
Items are presented alongside their recorded z-score.

{"columns": ["substance_smiles", "z-score"],
 "data": [
  ["CO[C@@H]1C=CCC(=O)N2CCC[C@H]2C(=O)OC[C@H](C)C(=O)OC[C@H]1C", -0.773],
  ["CCOC(=O)CCN1C(=O)[C@H]2[C@H]3[C@H](O)[C@H](O)CC(=NNC(=O)OCC)[C@@H]3CC[C@H]2C1=O", -0.489],
  ["CO[C@H]1COC(=O)[C@H](C)NC(=O)CC=C[C@@H](C)[C@H](OC)COC(=O)CC=C[C@@H]1C", 1.45],
  ["CC(C)CON=C1C[C@@H](O)[C@@H](O)[C@@H]2[C@@H]3C(=O)N(c4cccc(Oc5ccccc5)c4)C(=O)[C@@H]3CC[C@H]12", -0.831],
  ["CC(C)=CCCC(C)=CCON=C1C[C@@H](O)[C@@H](O)[C@@H]2[C@@H]3C(=O)N([C@@H](C)c4ccccc4)C(=O)[C@@H]3CC[C@H]12", -1.06]
]}

###

assay: small-molecule microarray binders of probe aLefty2, primary screen, biochemical, biotinylated probe, 635/667 nm fluorescence (AID 1094); conditions: higher = more signal;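 further: score merges spot fluorescence near 667 nm with spot signal-to-noise ratio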
Would you please tag the item 1 when its composite z-score is -0.1 or above, and 0 when it is below?

{"columns": ["molecule", "class"],
 "data": [
  ["C[C@@H](ON=C1[C@H]2CCn3c(=O)n(-c4ccccc4)c(=O)n3[C@H]2[C@H](O)[C@@H]2O[C@H]12)c1cn([C@H](CO)Cc2ccccc2)nn1", 0],
  ["COC(=O)[C@H](C)NC(=O)CCC1CC(OC(=O)NCCc2ccc(F)cc2)CC2(CCCC(COC(=O)NCCCN3CCCC3=O)O2)O1 (stereo partly specified)", 0],
  ["CCOC(=O)[C@H](CC(C)C)NC(=O)CCC1CC(OC(=O)NCc2cccc3ccccc23)CC2(CCCC(COC(=O)NCc3ccccc3)O2)O1 (stereo partly specified)", 0],
  ["CC(=O)OC[C@H]1O[C@H](C#CC(C)(C)C)C=C[C@@H]1OC(C)=O", 0],
  ["CC(C)=NOCc1ccc(-c2cn([C@@H]3COC[C@H]3O)nn2)cc1", 1],
  ["CC(C)C(=O)N[C@@H]1CCCN1C(=O)C=Cc1ccccc1", 0],
  ["C=C(C)C(=O)OC[C@@H]1CN2[C@@H](CC[C@@H](C)[C@@H]2c2ccc(Br)cc2)C(=O)O1", 0],
  ["CC(C)=NO[C@@H](C)c1cc(-c2c(C)cc(C)cc2C)no1", 0],
  ["CO[C@@H]1C=CCC(=O)N2CCC[C@H]2C(=O)OC[C@H](C)C(=O)OC[C@H]1C", 1],
  ["CC(C)CCN1CCc2nc(-c3ccccc3)c3c(c2C1)CO[C@@H](C)C3", 1],
  ["CCOC(=O)[C@H](Cc1ccccc1)NC(=O)CCC1CC(OC(=O)NCc2cccc3ccccc23)CC2(CCCC(COC(=O)NCCCN3CCCC3=O)O2)O1 (stereo partly specified)", 0],
  ["Cc1cc2c(nc1C)CCCN2CC(C)ON=C[C@@H](C)[C@H](OCc1ccccc1)C(C)C (stereo partly specified)", 0],
  ["Cc1ccc(S(=O)(=O)N[C@H]2COC(=O)[C@@H](C)COC(=O)[C@H](C)NC(=O)CC=C[C@H]2C)cc1", 0],
  ["CC(C)CON=C1C[C@@H](O)[C@@H](O)[C@@H]2[C@@H]3C(=O)N(c4cccc(Oc5ccccc5)c4)C(=O)[C@@H]3CC[C@H]12", 0],
  ["CCOC(=O)CCN1C(=O)[C@H]2[C@H]3[C@H](O)[C@H](O)CC(=NNC(=O)OCC)[C@@H]3CC[C@H]2C1=O", 1]
]}
